Procedure Text: β-Lactam stability in rat plasma
Format: in vitro ADME
Test Settings: normal rat plasma, room temperature; read-out: Rat Plasma Stability (T1/2; min)
Measure Name: half-life

So what's the measured half-life for this one? C[C@@H](NC(=O)N1C(=O)[C@H](Cc2ccnc(N)c2)[C@H]1S(C)(=O)=O)c1ccccc1 [Example 39]
< 1.67 h

Could you tell me which half-life is on file for C[C@@H](NC(=O)N1C(=O)[C@H](Cc2ccnc(N)c2)[C@H]1C(=O)O)c1ccc2c(c1)OC(F)(F)O2 [Example 91] ?
> 1.67 h

Which measured half-life value corresponds to CCOC(=O)[C@@H]1[C@@H](Cc2ccnc(N)c2)C(=O)N1C(=O)N[C@@H](C)c1ccc2c(c1)OC(F)(F)O2 [Example 166] ?
< 1.67 h

Please look up its half-life: CCOC(=O)[C@@H]1[C@@H](Cc2ccnc(NC)c2)C(=O)N1C(=O)N[C@H](C)c1ccc2c(c1)OC(F)(F)O2 [Example 99]
< 1.67 h

Could you share which half-life value was measured for O=C(O)[C@@H]1[C@@H](CCc2cccc(Cl)c2)C(=O)N1C(=O)N[C@@H](C1CCCCC1)C(F)(F)F [Example 134] ?
> 1.67 h

Entry CCOC(=O)[C@@H]1[C@@H](Cc2ccnc(NC(=O)OCOC(=O)C(C)C)c2)C(=O)N1C(=O)N[C@H](C)c1ccc2c(c1)OC(F)(F)O2 [Example 92] : reported half-life = ?
< 1.67 h

Please look up its half-life: Nc1cc(C[C@H]2C(=O)N(C(=O)NCc3cccc4ccccc34)[C@@H]2C(=O)O)ccn1 [Example 43]
> 1.67 h

# input compound: Nc1cc(C[C@H]2C(=O)N(C(=O)N[C@@H](C3CCCCC3)C(F)(F)F)[C@@H]2C(=O)O)ccn1 [Example 88] ; wanted: its half-life
> 1.67 h

Returns the measured half-life for the input compound. Input: CCCC(CCC)NC(=O)N1C(=O)[C@H](Cc2ccnc(N)c2)[C@H]1C(=O)O [Example 52]
> 1.67 h

Using the record for C[C@H](NC(=O)N1C(=O)[C@H](Cc2ccnc(N)c2)[C@H]1C(=O)O)c1ccc2c(c1)OC(F)(F)O2 [Example 130] , report its half-life.
> 1.67 h

I have this compound here, C[C@@H](NC(=O)N1C(=O)[C@H](Cc2ccnc(N)c2)[C@H]1C(=O)O)c1cccnc1 [Example 40] , and I need its recorded half-life.
> 1.67 h

// returns reported half-life for input O=C(O)[C@@H]1[C@@H](Cc2ccncc2)C(=O)N1C(=O)N[C@@H](C1CCCCC1)C(F)(F)F [Example 135]
> 1.67 h

Name the reported half-life value associated with the compound CCOC(=O)[C@@H]1[C@@H](Cc2ccnc(NC(=O)[C@H](C)N)c2)C(=O)N1C(=O)N[C@H](C)c1ccc2c(c1)OC(F)(F)O2 [Example 148]
< 1.67 h
